inhibition at 0.2 µM for assorted molecules
# system-name: human CB2 receptor (Homo sapiens, UniProt P34972)
# Construct: expressed in transfected cells; host or cells: SK-N-MC cells, stably transfected with pcDNA3 CB-2 (human); semi-purified membrane pellet
# Sequence (P34972 whole entry): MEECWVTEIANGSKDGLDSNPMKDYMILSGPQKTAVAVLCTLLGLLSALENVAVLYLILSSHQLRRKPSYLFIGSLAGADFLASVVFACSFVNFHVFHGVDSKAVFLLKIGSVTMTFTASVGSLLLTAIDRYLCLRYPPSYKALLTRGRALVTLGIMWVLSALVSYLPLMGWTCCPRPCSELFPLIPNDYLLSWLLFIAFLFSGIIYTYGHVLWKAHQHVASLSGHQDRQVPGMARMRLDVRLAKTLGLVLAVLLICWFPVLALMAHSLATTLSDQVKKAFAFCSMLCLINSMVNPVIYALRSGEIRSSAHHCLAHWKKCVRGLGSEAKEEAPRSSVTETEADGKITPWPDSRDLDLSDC
# experiment-description: Binding assay for CB2, radioligand [3H]-CP-55,940 displacement on membranes of transfected SK-N-MC cells
# condition-context: test concentration of 0.2 μM; human CB2 in SK-N-MC membranes; read-out: Cannabinoid CB2 Receptor Binding Inhibition (%)
Quick reminder: number only, in %, skip the unit.

A selection of reference data follows.
# molecule, inhibition at 0.2 µM, %
data = [
    ("COC(=O)N1CCc2c(C(=O)NC(C)c3ccccn3)nn(-c3ccc(Cl)cc3Cl)c2/C1=C\\c1ccc(F)cc1 (centres unmarked) [Cpd 5]", 17),
    ("CC(NC(=O)c1nn(-c2ccc(Cl)cc2Cl)c2c1CCN(C(=O)OC(C)(C)C)/C2=C/c1ccc(F)cc1)c1ccccn1 (centres unmarked) [Cpd 2]", 13),
    ("C[C@@H](NC(=O)c1nn(-c2ccc(Cl)cc2Cl)c2c1CCN(C(=O)OC(C)(C)C)/C2=C/c1ccc(F)cc1)c1ccccc1 [Cpd 1]", 35),
    ("CC(C)(C)OC(=O)N1CCc2c(C(=O)NN3CCCCC3)nn(-c3ccc(Cl)cc3Cl)c2/C1=C\\c1ccc(F)cc1 [Cpd 3]", 13),
]

Pending molecule:
Query block: Need inhibition at 0.2 µM of CC(C)(C)OC(=O)N1CCc2c(C(=O)N3CCCCC3)nn(-c3ccc(Cl)cc3Cl)c2/C1=C\c1ccc(F)cc1 [Cpd 4] , thanks.
Result block: 18

---

# system-name: human CB1 receptor (Homo sapiens, UniProt P21554)
# Construct: expressed in transfected cells; host or cells: SK-N-MC cells, stably transfected with pcDNA3 CB-1 (human); semi-purified membrane pellet
# Sequence (P21554 whole entry): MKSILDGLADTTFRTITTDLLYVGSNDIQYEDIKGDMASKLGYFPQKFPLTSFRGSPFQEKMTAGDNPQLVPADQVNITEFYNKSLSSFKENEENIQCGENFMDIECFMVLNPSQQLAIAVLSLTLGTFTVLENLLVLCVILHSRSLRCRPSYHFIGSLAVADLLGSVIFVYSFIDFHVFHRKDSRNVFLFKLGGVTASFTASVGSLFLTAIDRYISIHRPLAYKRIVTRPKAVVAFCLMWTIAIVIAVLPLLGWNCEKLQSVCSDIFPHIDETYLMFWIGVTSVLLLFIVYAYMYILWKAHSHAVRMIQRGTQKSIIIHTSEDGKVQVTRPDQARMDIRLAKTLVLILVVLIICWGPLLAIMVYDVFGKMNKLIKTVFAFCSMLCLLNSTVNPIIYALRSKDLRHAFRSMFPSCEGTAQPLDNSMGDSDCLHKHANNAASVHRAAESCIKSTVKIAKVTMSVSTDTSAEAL
# experiment-description: Binding assay for CB1, radioligand [3H]-CP-55,940 displacement on membranes of transfected SK-N-MC cells
# condition-context: human CB1 in SK-N-MC membranes; [3H]-CP-55,940 0.2 nM; calculated by linear regression; read-out: Cannabinoid CB1 Receptor Binding IC50
IC50 for assorted molecules
Quick reminder: number only, in nM, skip the unit.

A selection of reference data follows.
# molecule, system-name, IC50 [nM]
data = [
    ("COC(=O)N1CCc2c(C(=O)NC(C)c3ccccn3)nn(-c3ccc(Cl)cc3Cl)c2/C1=C\\c1ccc(F)cc1 (stereo not shown)", "human CB1 receptor (Homo sapiens, UniProt P21554)", 33),
    ("CC(NC(=O)c1nn(-c2ccc(Cl)cc2Cl)c2c1CCN(C(=O)OC(C)(C)C)/C2=C/c1ccc(F)cc1)c1ccccn1 (stereo not shown)", "human CB1 receptor (Homo sapiens, UniProt P21554)", 48),
    ("CC(C)(C)OC(=O)N1CCc2c(C(=O)NN3CCCCC3)nn(-c3ccc(Cl)cc3Cl)c2/C1=C\\c1ccc(F)cc1", "human CB1 receptor (Homo sapiens, UniProt P21554)", 12),
]

Query block: Need IC50 of C[C@@H](NC(=O)c1nn(-c2ccc(Cl)cc2Cl)c2c1CCN(C(=O)OC(C)(C)C)/C2=C/c1ccc(F)cc1)c1ccccc1 , thanks.
Result block: 10
